The compounds listed here are annotated with their CC50 at 20 h.
- assay.name: Cytotoxicity against HEK293 cells assessed as decrease in cell viability after 20 hrs by resazurin dye-based fluorescence assay
- condition.info: human

| query.smiles | u | value.modifier | CC50 at 20 h |
| --- | --- | --- | --- |
| CC(C)CCOc1ccccc1-c1ccccc1OCc1cn([C@H](CCCNC(=N)N)C(=O)NCc2ccccc2)nn1.Cl | µg/mL | = | 16.8 |
| CC(C)CCOc1ccc2ccccc2c1-c1c(OCC(=O)N[C@H](CCCNC(=N)N)C(=O)NCCc2ccc(F)cc2)ccc2ccccc12.Cl | µg/mL | > | 32 |
| CC(C)CCOc1ccc2ccccc2c1-c1c(OCc2cn([C@H](CCCCN)C(=O)N[C@H](CCCNC(=N)N)Cn3cc(CCc4ccccc4)nn3)nn2)ccc2ccccc12.Cl.Cl | µg/mL | > | 32 |
| CC(C)CCOc1ccc2ccccc2c1-c1c(OCc2cn([C@H](CCCCN)C(=O)N[C@H](CCCNC(=N)N)Cn3cc(CC4CCCCC4)nn3)nn2)ccc2ccccc12.Cl.Cl | µg/mL | = | 16.6 |
| CC(C)CCOc1ccccc1-c1ccccc1OCc1cn([C@H](CCCNC(=N)N)C(=O)N[C@H](CCCCN)Cn2cc(CCc3ccccc3)nn2)nn1.Cl.Cl | µg/mL | > | 32 |
| CC(C)CCOc1ccccc1-c1ccccc1OCc1cn([C@H](CCCCN)C(=O)NCc2ccccc2)nn1.Cl | µg/mL | > | 32 |
| CC(C)CCOc1ccc2ccccc2c1-c1c(OCc2cn([C@H](CCCCN)C(=O)N[C@H](CCCNC(=N)N)C(=O)NCCc3ccccc3)nn2)ccc2ccccc12.Cl.Cl | µg/mL | = | 15.2 |

====

- Test system: Staphylococcus aureus
- assay.name: Growth inhibition of methicillin-resistant Staphylococcus aureus ATCC 43300 incubated for 18 hrs
- Assay type: organism-based
Each entry below lists one item and its recorded MIC value.

| query.smiles | MIC |
| --- | --- |
| CC(C)CCOc1ccc2ccccc2c1-c1c(OCc2cn([C@H](CCCCN)C(=O)N[C@H](CCCNC(=N)N)Cn3cc(CCc4ccccc4)nn3)nn2)ccc2ccccc12.Cl.Cl | 2 µg/mL |
| CC(C)CCOc1ccc2ccccc2c1-c1c(OCC(=O)N[C@H](CCCNC(=N)N)C(=O)NCCc2ccccc2)ccc2ccccc12.Cl | 4 µg/mL |
| CC(C)CCOc1ccccc1-c1ccccc1OCc1cn([C@H](CCCNC(=N)N)C(=O)NCCc2ccccc2)nn1.Cl | 8 µg/mL |
| CC(C)CCOc1ccccc1-c1ccccc1OCc1cn([C@H](CCCNC(=N)N)C(=O)NCc2ccccc2)nn1.Cl | 8 µg/mL |

====

- Test system: Enterococcus faecalis
- assay.name: Growth inhibition of Enterococcus faecalis ATCC 29212 incubated in MHB broth for 24 hrs
- Format: organism-based
Recorded MIC by entry

| query.smiles | value.modifier | MIC, µg/mL |
| --- | --- | --- |
| CC(C)CCOc1ccccc1-c1ccccc1OCc1cn([C@H](CCCNC(=N)N)C(=O)NCc2cc(F)cc(F)c2)nn1.Cl | = | 8 |
| CC(C)CCOc1ccc2ccccc2c1-c1c(OCC(=O)N[C@H](CCCNC(=N)N)C(=O)NCCc2ccc(F)cc2)ccc2ccccc12.Cl | > | 128 |
| CC(C)CCOc1ccccc1-c1ccccc1OCc1cn([C@H](CCCNC(=N)N)C(=O)NC2CCCCC2)nn1.Cl | = | 4 |
| CC(C)CCOc1ccccc1-c1ccccc1OCc1cn([C@H](CCCCN)C(=O)NCC2CCCCC2)nn1.Cl | = | 8 |
| CC(C)CCOc1ccccc1-c1ccccc1OCc1cn([C@H](CCCNC(=N)N)C(=O)N[C@H](CCCCN)Cn2cc(Cc3ccccc3)nn2)nn1.Cl.Cl | = | 8 |
| CC(C)CCOc1ccc2ccccc2c1-c1c(OCc2cn([C@H](CCCNC(=N)N)C(=O)N[C@H](CCCCN)Cn3cc(CC4CCCCC4)nn3)nn2)ccc2ccccc12.Cl.Cl | = | 4 |
| CC(C)CCOc1ccc2ccccc2c1-c1c(OCc2cn([C@H](CCCNC(=N)N)C(=O)NCc3ccccc3)nn2)ccc2ccccc12.Cl | = | 2 |
| CC(C)CCOc1ccccc1-c1ccccc1OCc1cn([C@H](CCCCN)C(=O)N[C@H](CCCNC(=N)N)Cn2cc(CCc3ccccc3)nn2)nn1.Cl.Cl | = | 8 |
| CC(C)CCOc1ccc2ccccc2c1-c1c(OCC(=O)N[C@H](CCCNC(=N)N)C(=O)NCCc2ccccc2)ccc2ccccc12.Cl | = | 4 |

====

- Test system: Clostridioides difficile
- assay.name: Antibacterial activity against Clostridium difficile ATCC 700057 incubated for 2 to 4 hrs in pre-reduced brucella broth supplemented with haemin/vitamin K and further incubation in anaerobic condition for 48 hrs
- Type: functional
parameter.measured: MIC (µg/mL)

| query.smiles | u | quantitative.readout |
| --- | --- | --- |
| CC(C)CCOc1ccccc1-c1ccccc1OCc1cn([C@H](CCCNC(=N)N)C(=O)NCc2ccccc2)nn1.Cl | µg/mL | 32 |
| CC(C)CCOc1ccccc1-c1ccccc1OCc1cn([C@H](CCCCN)C(=O)N[C@H](CCCNC(=N)N)Cn2cc(CCc3ccccc3)nn2)nn1.Cl.Cl | µg/mL | 16 |
| CC(C)CCOc1ccccc1-c1ccccc1OCc1cn([C@H](CCCCN)C(=O)NCCc2ccccc2)nn1.Cl | µg/mL | 32 |
| COc1cc(NC(=O)[C@@H](CCCNC(=N)N)n2cc(COc3ccccc3-c3ccccc3OCCC(C)C)nn2)cc(OC)c1.Cl | µg/mL | 32 |
| CC(C)CCOc1ccc2ccccc2c1-c1c(OCc2cn([C@H](CCCCN)C(=O)N[C@H](CCCNC(=N)N)C(=O)N3CCCCC3)nn2)ccc2ccccc12.Cl.Cl | µg/mL | 16 |
| CC(C)CCOc1ccc2ccccc2c1-c1c(OCC(=O)N[C@H](CCCNC(=N)N)Cn2cc(-c3ccccc3)nn2)ccc2ccccc12.Cl | µg/mL | 8 |
| CC(C)CCOc1ccccc1-c1ccccc1OCc1cn([C@H](CCCCN)C(=O)N[C@H](CCCNC(=N)N)Cn2cc(C3CCCCC3)nn2)nn1.Cl.Cl | µg/mL | 64 |
| CC(C)CCOc1ccccc1-c1ccccc1OCc1cn(C[C@@H](CCCCN)NC(=O)[C@@H](CCCNC(=N)N)n2cc(C3CCCCC3)nn2)nn1.Cl.Cl | µg/mL | 4 |
| CC(C)CCOc1ccc2ccccc2c1-c1c(OCc2cn([C@H](CCCNC(=N)N)C(=O)NCCc3ccccc3)nn2)ccc2ccccc12.Cl | µg/mL | 16 |
| CC(C)CCOc1ccc2ccccc2c1-c1c(OCc2cn([C@H](CCCNC(=N)N)C(=O)N[C@H](CCCCN)Cn3cc(CCc4ccccc4)nn3)nn2)ccc2ccccc12.Cl.Cl | µg/mL | 16 |
| CC(C)CCOc1ccccc1-c1ccccc1OCc1cn([C@H](CCCNC(=N)N)C(=O)Nc2cccc(F)c2)nn1.Cl | µg/mL | 32 |
| CC(C)CCOc1ccccc1-c1ccccc1OCc1cn([C@H](CCCNC(=N)N)C(=O)N[C@H](CCCCN)Cn2cc(C3CCCCC3)nn2)nn1.Cl.Cl | µg/mL | 8 |
| CC(C)CCOc1ccc2ccccc2c1-c1c(OCc2cn([C@H](CCCNC(=N)N)C(=O)N[C@H](CCCCN)Cn3cc(CC4CCCCC4)nn3)nn2)ccc2ccccc12.Cl.Cl | µg/mL | 8 |
| CC(C)CCOc1ccccc1-c1ccccc1OCc1cn([C@H](CCCNC(=N)N)C(=O)NCCc2ccc(F)cc2)nn1.Cl | µg/mL | 64 |
| CC(C)CCOc1ccccc1-c1ccccc1OCc1cn([C@H](CCCCN)C(=O)NCc2ccc(C(F)(F)F)cc2)nn1.Cl | µg/mL | 32 |
| CC(C)CCOc1ccccc1-c1ccccc1OCc1cn([C@H](CCCCN)C(=O)NCC2CCCCC2)nn1.Cl | µg/mL | 16 |
| CC(C)CCOc1ccccc1-c1ccccc1OCc1cn([C@H](CCCNC(=N)N)C(=O)Nc2ccccc2)nn1.Cl | µg/mL | 16 |

====

- Tested on: Pseudomonas aeruginosa
- assay.name: Growth inhibition of Pseudomonas aeruginosa ATCC 27853 incubated for 18 hrs
- Format: organism-based
The entries below are paired with their reported MIC.

| query.smiles | MIC |
| --- | --- |
| CC(C)CCOc1ccccc1-c1ccccc1OCc1cn([C@H](CCCCN)C(=O)NCCc2ccccc2)nn1.Cl | > 32 µg/mL |
| CC(C)CCOc1ccccc1-c1ccccc1OCc1cn([C@H](CCCNC(=N)N)C(=O)NC2CCCCC2)nn1.Cl | > 32 µg/mL |
| CC(C)CCOc1ccccc1-c1ccccc1OCc1cn([C@H](CCCNC(=N)N)C(=O)N[C@H](CCCCN)Cn2cc(C3CCCCC3)nn2)nn1.Cl.Cl | 8 µg/mL |
| COc1cc(NC(=O)[C@@H](CCCNC(=N)N)n2cc(COc3ccccc3-c3ccccc3OCCC(C)C)nn2)cc(OC)c1.Cl | > 32 µg/mL |

meta.source: ChEMBL document CHEMBL4393656
